Where do the numbers come from? From patent US20260274894A1.

Target: prolyl oligopeptidase (PREP) (Homo sapiens, UniProt P48147)
Sequence (P48147 1-710): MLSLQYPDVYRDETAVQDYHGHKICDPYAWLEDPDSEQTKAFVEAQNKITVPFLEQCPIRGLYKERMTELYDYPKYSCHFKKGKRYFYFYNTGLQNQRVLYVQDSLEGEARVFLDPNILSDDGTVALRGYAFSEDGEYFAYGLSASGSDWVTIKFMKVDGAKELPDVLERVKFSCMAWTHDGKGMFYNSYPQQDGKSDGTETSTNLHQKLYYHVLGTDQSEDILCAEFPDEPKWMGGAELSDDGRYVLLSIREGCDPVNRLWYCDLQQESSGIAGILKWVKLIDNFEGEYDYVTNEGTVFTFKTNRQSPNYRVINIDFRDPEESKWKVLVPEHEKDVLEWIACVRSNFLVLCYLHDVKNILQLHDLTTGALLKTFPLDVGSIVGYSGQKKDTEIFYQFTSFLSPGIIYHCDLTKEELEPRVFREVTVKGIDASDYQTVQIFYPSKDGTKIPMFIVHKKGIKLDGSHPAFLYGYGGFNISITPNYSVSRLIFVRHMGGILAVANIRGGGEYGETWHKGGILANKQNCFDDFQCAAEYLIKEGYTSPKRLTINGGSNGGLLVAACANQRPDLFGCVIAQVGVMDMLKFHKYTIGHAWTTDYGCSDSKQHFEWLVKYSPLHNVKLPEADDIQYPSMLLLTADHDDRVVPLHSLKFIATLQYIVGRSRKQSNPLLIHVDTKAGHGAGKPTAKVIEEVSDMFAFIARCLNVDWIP
Assay: Protease inhibition (selectivity) assay, PREP, Z-Gly-Pro-AMC substrate
Settings: recombinant human PREP 0.6 nM
Numbered stars: 1 amine (or outer) side, 2 acyl side, 3 side chain; on linkers, the order of the positions; unused ones are H or OH. Bridge positions count the residues as written; N and C are the ends. Square brackets hold non-standard residues; d marks the D form. Side chains are listed from the residue outwards. Peptide text beside a SMILES is read from it. * marks the point of attachment. ξ: configuration not given here. DOTA = O=C(O)CN1CCN(CC(=O)O)CCN(CC(=O)*)CCN(CC(=O)O)CC1; Azetidine3carboxylic = O=C(C1CN([*:1])C1)[*:2]; mXylylene = c1cc(C[*:1])cc(C[*:2])c1; Cha = N[C@@H](CC1CCCCC1)C(=O)O; Dab = NCC[C@H](N)C(=O)O; Aoc = NCCCCCCCC(=O)O; CO = O=C([*:1])[*:2]; ξP = O=C(O)C1CCCN1; ξC = NC(CS)C(=O)O; NHBu = CCCCN*
Known IC50 of a selection of molecules
property-measured: IC50

# molecule, property-measured, reported-measurement
measured = [
    ("CCCCCC(=O)N[C@H]1CSCc2cccc(c2)CSC[C@@H](C(=O)N[C@@H](CCC(=O)NCCNC(=O)CN2CCN(CC(=O)O)CCN(CC(=O)O)CCN(CC(=O)O)CC2)C(=O)O)NC(=O)[C@H](Cc2ccccc2)NC(=O)[C@H](CCC(N)=O)NC(=O)[C@H]([C@@H](C)O)NC(=O)[C@@H]2CCCN2C(=O)C2CN(C2)C1=O", "IC50", "> 1000 nM"),
    ("CCCCNC(=O)N[C@H]1CSCc2cccc(c2)CSCC(C(=O)N[C@@H](CCNC(=O)CNC(=O)CN2CCN(CC(=O)O)CCN(CC(=O)O)CCN(CC(=O)O)CC2)C(=O)O)NC(=O)[C@H](CC2CCCCC2)NC(=O)[C@H](CCC(N)=O)NC(=O)[C@H]([C@@H](C)O)NC(=O)[C@@H]2CCCN2C(=O)C2CN(C2)C1=O (stereo partly drawn)", "IC50", "> 1000 nM"),
    ("CCCCNC(=O)N[C@H]1CSCc2cccc(c2)CSCC(C(=O)N[C@@H](CCNC(=O)CCCCCCCNC(=O)CN2CCN(CC(=O)O)CCN(CC(=O)O)CCN(CC(=O)O)CC2)C(=O)O)NC(=O)[C@H](CC2CCCCC2)NC(=O)[C@H](CCC(N)=O)NC(=O)[C@H]([C@@H](C)O)NC(=O)C2CCCN2C(=O)C2CN(C2)C1=O (stereo partly drawn) [JHDC53] ({NHBu-CO}-C[Azetidine3carboxylic][ξP]TQ[Cha][ξC][Dab]([Aoc-DOTA])-OH; linker 1-7 via mXylylene)", "IC50", "> 1000 nM"),
]
